Reference for the values: patent US12134663B2

Target: Lck (Homo sapiens)
Construct: purchased Eurofins Pharma Discovery Services UK Limited
Experiment: Lck Activity above control (1µM)
Where no end group is shown, it is not given here. 2Adod = 2-amino-dodecanoic acid
Hi there, I'd appreciate the recorded Lck Activity above control (1 µM) for every entry that follows.
Give the number; % is assumed, so skip it.

**Query** # lookup: Lck Activity above control (1 µM) of RSKAKNPLYR-RRRRRRRR-(2Adod)4-NH2 (SEQ ID NO: 65, IK14804) (RSKAKNPLYRRRRRRRRR-{2Adod-2Adod-2Adod-2Adod-NH2})
**Result** 468

**Query** What measured Lck Activity above control (1 µM) goes with RRRRRRRRRRRRRR-OH (SEQ ID NO: 11, IK014OH) ?
**Result** 156

**Query** Name the reported Lck Activity above control (1 µM) value associated with the substance RVKVKVVVVR-RRRRRRRR-(2Adod)4-NH2 (SEQ ID NO: 66, IK15804) (RVKVKVVVVRRRRRRRRR-{2Adod-2Adod-2Adod-2Adod-NH2})
**Result** 335

**Query** Which measured Lck Activity above control (1 µM) value corresponds to RRRRRRRRRRRRRR (SEQ ID NO: 9, IK01400) ?
**Result** 351

**Query** Which Lck Activity above control (1 µM) reading was recorded for the substance RRRRRRRR (SEQ ID NO: 4, IK00800) ?
**Result** 126
